experiment: chemical genetic growth profiling, strain panel (AID 1159580);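 note: tested at 20 µM; growth read once vehicle control cultures reached saturation at 30 °C; 1 = growth at the plate median or of vehicle wells; lower values mean less growth of the strain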; conditions: S. cerevisiae deletion strains, growth OD, locus YLR418C, strain cdc73, stronger effect = lower value
The whole screen tested about 5,500 compounds, of which about 2,000 (36%) were called active. Another 18% or so got no clear call; they are omitted. This is one part of the list.
Hi! Just check whether normalized growth is below 0.9. Below gives yes, equal or above gives no.

{"molecule": "C[N+]1(CCCCC[N+]2(C)CCCC2)CCCC1", "label_class": "no"}
{"molecule": "CN(N=O)C(=O)N[C@@H]1[C@@H](O)[C@H](O)[C@@H](CO)O[C@@H]1O", "label_class": "no"}
{"molecule": "COc1ccc(-c2cc(=O)c3ccccc3o2)cc1", "label_class": "yes"}
{"molecule": "Nc1nc(N)c2nc(-c3ccccc3)c(N)nc2n1", "label_class": "no"}
{"molecule": "CCOC(=O)C1C(C=C(C)C)C1(C)C (stereo not drawn)", "label_class": "no"}
{"molecule": "CC[N+]1(C)CCCC(OC(=O)C(O)(c2ccccc2)c2ccccc2)C1 (stereo not drawn)", "label_class": "no"}
{"molecule": "COc1ccc(-c2cc(=O)c3cc(OC)ccc3o2)cc1", "label_class": "no"}
{"molecule": "CC(=O)CC(c1ccccc1)c1c(O)c2ccccc2oc1=O (stereo not drawn)", "label_class": "no"}
{"molecule": "CC(=O)Oc1cc(-c2coc3cc(OC(C)=O)c(OC(C)=O)c(OC(C)=O)c3c2=O)cc(OC(C)=O)c1OC(C)=O", "label_class": "yes"}
{"molecule": "CC(=O)O.CC(=O)O.[Cd]", "label_class": "yes"}
{"molecule": "NS(=O)(=O)c1cc2c(cc1C(F)(F)F)NCNS2(=O)=O", "label_class": "no"}
{"molecule": "O=c1c(-c2ccc(O)cc2)coc2cc(O)cc(O)c12", "label_class": "no"}
{"molecule": "O=c1c(-c2cc(O)c(O)c(O)c2)coc2cc(O)c(O)c(O)c12", "label_class": "yes"}
{"molecule": "C[C@@H]1CC[C@@]2(OC1)OC1C(O)C3C4CC[C@H]5C[C@H](O[C@@H]6O[C@H](CO)[C@H](O[C@@H]7O[C@H](CO)[C@@H](O)[C@H](O[C@@H]8OC[C@@H](O)[C@H](O)[C@H]8O)[C@H]7O[C@@H]7O[C@H](CO)[C@H](O)[C@H](O[C@@H]8O[C@H](CO)[C@@H](O)[C@H](O)[C@H]8O)[C@H]7O)[C@H](O)[C@H]6O)[C@H](O)C[C@]5(C)C4CC[C@]3(C)C1[C@@H]2C (stereo partly drawn)", "label_class": "yes"}
{"molecule": "COc1cc(O)c2c(=O)c(-c3ccc(O)cc3)coc2c1", "label_class": "yes"}
{"molecule": "CCCCCCCCCCCCCCCC[n+]1ccccc1", "label_class": "yes"}

---

In this section we review reported normalized growth values for a set of molecules.
experiment: chemical genetic growth profiling, strain panel (AID 1159580);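 note: tested at 20 µM; growth read once vehicle control cultures reached saturation at 30 °C; 1 = growth at the plate median or of vehicle wells; lower values mean less growth of the strain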; conditions: S. cerevisiae deletion strains, growth OD, locus YLR330W, strain CHS5, stronger effect = lower value
Hit rate of the full screen: of about 5,500 compounds, about 2,000 (36%) were called active. Another 18% or so got no clear call; they are omitted. This is one part of the list.
recorded_endpoint: normalized growth

{"molecule": "COc1ccc2c(=O)cc(-c3ccccc3OC)oc2c1", "test_value": 0.629}
{"molecule": "NCCc1ccc(O)cc1", "test_value": 1.01}
{"molecule": "CCCCCCCCCCCCCCCC[n+]1ccccc1", "test_value": 0.0543}
{"molecule": "NCCc1cccc(O)c1", "test_value": 0.99}
{"molecule": "CC(N)Cc1ccc(O)cc1 (stereo not drawn)", "test_value": 1.01}
{"molecule": "COc1cc(O)c2c(=O)c(-c3ccc(O)cc3)coc2c1", "test_value": 0.872}
{"molecule": "O=c1c2ccccc2oc2ccc(O)cc12", "test_value": 0.834}
{"molecule": "COc1ccc(-c2cc(=O)c3cc(OC)ccc3o2)cc1", "test_value": 0.925}
{"molecule": "CC(=O)CC(c1ccccc1)c1c(O)c2ccccc2oc1=O (stereo not drawn)", "test_value": 1}
{"molecule": "CC(=O)O[C@H]1C[C@@H](O)C(C)(C)C2C[C@@H](OC(C)=O)[C@]3(C)C(CC[C@@]4(C)[C@H](c5ccoc5)OC(=O)C5OC543)[C@]21C (stereo partly drawn)", "test_value": 0.992}
{"molecule": "N[C@@H]1CONC1=O", "test_value": 1.01}
{"molecule": "COc1cccc(-c2cc(=O)c3cc(OC)ccc3o2)c1", "test_value": 0.952}
{"molecule": "CC1(C)O[C@@H]2CC3C4C[C@H](F)C5=CC(=O)C=CC5(C)C4C(O)CC3(C)[C@]2(C(=O)CO)O1 (stereo partly drawn)", "test_value": 1.02}
{"molecule": "Cc1cc(=O)c2c(O)c3c(cc2o1)OC(C)(C)CC3", "test_value": 0.988}
{"molecule": "COc1ccc(-c2coc3cc(OC)cc(O)c3c2=O)cc1", "test_value": 0.977}
{"molecule": "Cc1coc2ccccc2c1=O", "test_value": 1.01}
{"molecule": "CC(=O)Oc1c(-c2ccccc2)oc2c(CC=C(C)C)c3c(c(OC(C)=O)c2c1=O)C=CC(C)(C)O3", "test_value": 0.924}
{"molecule": "CC1(C)O[C@@H]2CC3C4CCC5=CC(=O)C=C[C@]5(C)[C@@]4(F)[C@@H](O)C[C@]3(C)[C@]2(C(=O)CO)O1 (stereo partly drawn)", "test_value": 1.01}
{"molecule": "CC(=O)Nc1ccc(O)cc1", "test_value": 0.986}
{"molecule": "NCCc1ccc(O)c(O)c1", "test_value": 0.998}
{"molecule": "CC(=O)O.CC(=O)O.[Cd]", "test_value": 0.811}
{"molecule": "COc1cccc(-c2cc(=O)c3ccc(OC)cc3o2)c1", "test_value": 1.02}
{"molecule": "CCn1cc(C(=O)O)c(=O)c2cc(F)c(N3CCNCC3)cc21", "test_value": 1}
{"molecule": "COC(=O)C1=C(C)NC(C)=C(C(=O)OC)C1c1ccccc1[N+](=O)[O-]", "test_value": 0.931}
{"molecule": "COC(=O)C1=C(C)NC(C)=C(C(=O)OCCN(C)Cc2ccccc2)C1c1cccc([N+](=O)[O-])c1 (stereo not drawn)", "test_value": 0.993}
{"molecule": "COc1ccc(-c2cc(=O)c3c(OC(C)=O)cc(OC(C)=O)cc3o2)cc1", "test_value": 0.929}
{"molecule": "O=c1[nH]c2cc(Cl)c(Cl)cc2[nH]c1=O", "test_value": 0.894}
{"molecule": "CC1=NCCc2c1[nH]c1cc(O)ccc21", "test_value": 0.996}
{"molecule": "CCC/C=C/C=C/[C@@H]1C[C@@H](O)[C@@H](O)C(=O)[C@H]1C=O", "test_value": 0.946}
{"molecule": "Cc1cc2cc3c(C)cc(=O)oc3c(C)c2o1", "test_value": 0.984}
{"molecule": "COC(=O)C[C@H]1C(C)(C)C(=O)[C@@H]2CC3=C4CC(OC)O[C@@H](c5ccoc5)[C@]4(C)CCC3[C@@]1(C)C2=O (stereo partly drawn)", "test_value": 1}
{"molecule": "O=C(O)c1nc2cc(Cl)c(Cl)cc2[nH]c1=O", "test_value": 0.994}
{"molecule": "CC(=O)Nc1ccc(OC(=O)c2ccccc2O)cc1", "test_value": 0.959}
{"molecule": "COc1cc([C@@H]2c3cc4c(cc3[C@H](O)[C@H]3COC(=O)[C@@H]23)OCO4)cc(OC)c1OC", "test_value": 0.998}
{"molecule": "CC1=CCc2c(cc3oc(C)cc(=O)c3c2O)OC1", "test_value": 0.944}
{"molecule": "Nc1ccc(C(=O)Oc2ccccc2)c(O)c1", "test_value": 0.876}
{"molecule": "COc1cc2c3cc1Oc1cc(ccc1O)C[C@@H]1c4c(cc(OC)c(O)c4Oc4ccc(cc4)C[C@@H]3N(C)CC2)CC[N+]1(C)C", "test_value": 1.01}
{"molecule": "CC1(C)O[C@@H]2CC3C4C[C@H](F)C5=CC(=O)C=C[C@]5(C)[C@@]4(F)[C@@H](O)C[C@]3(C)[C@]2(C(=O)CO)O1 (stereo partly drawn)", "test_value": 1}

---

test: chemical genetic growth profiling, strain panel (AID 1159580);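 note: tested at 20 µM; growth read once vehicle control cultures reached saturation at 30 °C; 1 = growth at the plate median or of vehicle wells; lower values mean less growth of the strain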; conditions: S. cerevisiae deletion strains, growth OD, locus YOR265W, strain rbl2, stronger effect = lower value
Among all 5,500 compounds or so, about 2,000 (36%) were called active. Not shown: some 18% with an inconclusive outcome. Some of the results follow.

{"compound": "CN(C)CC/C=C1/c2ccccc2COc2ccccc21", "normalized growth": 1.03}
{"compound": "S=c1ccss1", "normalized growth": 0.992}
{"compound": "NCC(=O)CCC(=O)O", "normalized growth": 0.988}
{"compound": "CC(=O)O[C@@H]1CC2C(C)(C)[C@H](O)C[C@H](O)[C@]2(C)C2CC[C@@]3(C)[C@H](c4ccoc4)OC(=O)[C@H]4O[C@]43[C@@]21C (some centres undefined)", "normalized growth": 0.999}
{"compound": "COc1ccc(-c2cc(=O)c3ccccc3o2)cc1OC", "normalized growth": 0.935}
{"compound": "COC(=O)C1=C(C)NC(C)=C(C(=O)OCC(C)C)C1c1ccccc1[N+](=O)[O-] (centres undefined)", "normalized growth": 0.204}
{"compound": "COc1ccc(-c2cc(=O)c3cc(OC)ccc3o2)cc1", "normalized growth": 0.949}
{"compound": "CC1(C)O[C@@H]2CC3C4C[C@H](F)C5=CC(=O)C=C[C@]5(C)[C@@]4(F)[C@@H](O)C[C@]3(C)[C@]2(C(=O)CO)O1 (some centres undefined)", "normalized growth": 1.01}
{"compound": "CC(=O)O[C@H]1C[C@@]2(C)[C@H](c3ccoc3)OC(=O)[C@H]3O[C@]32[C@@]2(C)C1[C@]1(C)C(C[C@H]2OC(C)=O)C(C)(C)[C@H](OC(C)=O)C[C@@H]1OC(C)=O (some centres undefined)", "normalized growth": 0.951}
{"compound": "O=C(/C=C/c1ccccc1)c1ccc(O)cc1", "normalized growth": 0.295}
{"compound": "Nc1nnc(-c2cccc(Cl)c2Cl)c(N)n1", "normalized growth": 1.02}
{"compound": "COc1ccc(-c2cc(=O)c3c(OC)c(OC)c(OC)c(OC)c3o2)cc1", "normalized growth": 0.94}
{"compound": "FC(F)(F)C(Cl)Br (centres undefined)", "normalized growth": 1.03}
{"compound": "COc1ccc(C(=O)/C=C/c2ccccc2)cc1", "normalized growth": 0.994}

This collection of values is drawn from PubChem BioAssay AID1159580.
